# Lookup of reported %Inh keyed by entry
# System: JAK1(JH2domain-pseudokinase)
# condition.context: concentration: 1 μM, replicates: in singlicate; n = 1;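 also: KINOMEscan kinase panel screen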

compound	output.unit	%Inh
Cc1ccc(NC(=O)Nc2cccc(Cl)c2)cc1-c1ccc(C(=O)Nc2ccncc2)cc1	%	6
COc1cc2ncn(-c3cc(OCC4CCCO4)c(C(N)=O)s3)c2cc1OC (stereo not shown)	%	0
COc1ccc(CNC(=O)NC2CCN(c3ccnc(Nc4cc(OC)c(OC)c(OC)c4)n3)C2)cc1 (stereo not shown)	%	0
COc1ccccc1CNC(=O)c1cc(C(=O)c2ccccc2C)c[nH]1	%	0
Cc1ccc(C(=O)Nc2ccc(Nc3ccnc4cc(-c5ccccn5)ccc34)cc2O)cc1.Cl	%	0
CC(C)(C)c1ccc(C(=O)Nc2cn3cc(Cl)ccc3n2)cc1	%	7
Fc1cccc(COc2nnc(-c3ccc4c(c3)CCO4)o2)c1	%	10
COC(=O)c1c(-c2ccccc2)c2cc(OC)ccc2c(=O)n1Cc1ccccc1	%	0
Nc1ncnc2[nH]c(-c3ccccc3)nc12	%	34
O=C(Nc1n[nH]c2cc(-c3cccc(F)c3F)ccc12)C1CC1	%	67
Nc1nc(-c2nccs2)c(-c2ccnc3ccccc23)s1	%	0
Cl.NC(=O)c1cccc(Nc2nccc(Nc3ccc(Oc4cccc(Cl)c4)c(Cl)c3)n2)c1	%	0
NC(=O)c1nnc2ccccc2c1N	%	37
Cl.Oc1ccc(-c2nc(-c3ccccc3)[nH]c2-c2ccncc2)cc1	%	36
CS(=O)(=O)c1ccc(-c2nc3n(c2-c2ccncc2)CCC3)cc1	%	0
CS(=O)(=O)c1ccc(-c2c(-c3ncn[nH]3)sc(N3CCOCC3)c2C#N)cc1	%	56
CC(C)(C)c1ccc(C(=O)Nc2cn3cc(-c4cccnc4)ccc3n2)cc1	%	45
Cn1cncc1-c1ccc2ncnc(Nc3ccc(OCc4ccccc4)cc3)c2c1	%	22
CC1=C(C(=O)Nc2cc3cn[nH]c3cc2F)C(c2ccc(C(F)(F)F)cc2)CC(=O)N1 (stereo not shown)	%	0

====

# Test system: ANKK1
# condition.context: concentration: 1 μM, replicates: in singlicate; n = 1
Please assign 0 whenever %Inh is at or above 10%, and 1 whenever it is below.

molecule	target	discrete.label
Fc1cc(Cl)ccc1Nc1ccnc2cc(I)ccc12 [GW551191]	ANKK1	1
Cc1ccc(NC(=O)Nc2cccc(Cl)c2)cc1-c1ccc(C(=O)Nc2ccncc2)cc1 [GSK1398468]	ANKK1	0
Cn1ccc2ncnc(Oc3ccc(NC(=O)Nc4ccccc4)cc3)c21	ANKK1	1
Cc1cc(NCC(c2ccccc2)c2ccccc2)nc(NCc2ccc(C(F)(F)F)cc2)n1 [GW497681]	ANKK1	1

====

Reported values of %Inh for individual entries
# System: PKN1
# condition.context: concentration: 1 μM, replicates: in singlicate; n = 1
reported.metric: %Inh

molecule	target	experimental.value
Cc1ccc(-c2cc(-c3c[nH]nc3-c3ccccn3)ccn2)cc1	PKN1	0%
COc1ccc2nc(-c3cccc(C)n3)nc(Nc3ccncc3)c2c1	PKN1	3%
O=C(Nc1ccc2c(c1)OCO2)NC1CCN(c2ccnc(Nc3ccc(F)cc3)n2)C1 (stereo not drawn)	PKN1	4%
COc1cc(Nc2nccc(N3CCC(NC(=O)Nc4cc(C)ccc4C)C3)n2)cc(OC)c1OC (stereo not drawn)	PKN1	41%
Cl.O=C(Nc1cccc(-c2nn3ncccc3c2-c2ccnc(Nc3cccnc3)n2)c1)c1c(F)cccc1F	PKN1	45%
Cn1ccc2ncnc(Oc3ccc(Nc4nc5ccccc5[nH]4)cc3)c21	PKN1	0%
Cc1nnc(-c2ccc3occ(-c4ccc(S(C)=O)cc4)c3c2)[nH]1 (stereo not drawn)	PKN1	0%
Cc1ccccc1-n1cnc2c(N)ncnc21	PKN1	0%
CN(C)CCN(C)C(=O)c1cc(-c2ccncc2)c(-c2ccc(Cl)c(O)c2)o1.Cl.Cl	PKN1	17%

====

# Test system: MRCKB
# Construct: gene CDC42BPB
# condition.context: concentration: 1 μM, replicates: in singlicate; n = 1

compound	target	output.unit	%Inh
CC1=C(C(=O)Nc2cc3cn[nH]c3cc2F)C(c2ccc(C(F)(F)F)cc2)CC(=O)N1 (stereo not shown) [GSK429286]	MRCKB	%	23
O=C(Nc1ccccc1)Nc1cccc(Oc2ccc3nccn3n2)c1	MRCKB	%	4
COc1ccc(CNC(=O)NC2CCN(c3ccnc(Nc4cc(OC)c(OC)c(OC)c4)n3)C2)cc1 (stereo not shown) [GSK1379748]	MRCKB	%	0
Nc1ncnc2[nH]c(-c3ccccc3)nc12 [AH5015]	MRCKB	%	0
O=C(Nc1ccc2c(c1)OCO2)NC1CCN(c2ccnc(Nc3ccc(F)cc3)n2)C1 (stereo not shown) [GSK1379724]	MRCKB	%	16
COc1cccc(-c2cc(-c3c[nH]nc3-c3ccccn3)ccn2)c1 [GW680338]	MRCKB	%	0
CC(C)(C)c1ccc(C(=O)Nc2cn3cc(-c4cccnc4)ccc3n2)cc1	MRCKB	%	0
Cc1cc(N2Cc3ccccc3C2)nc(Nc2ccc(S(=O)(=O)N3CCOCC3)cc2)n1.Cl [GSK1669917]	MRCKB	%	0
Cn1ccc2ncnc(Oc3cccc(C(=O)Nc4ccccc4)c3)c21	MRCKB	%	15
Cc1ccccc1-n1cnc2c(N)ncnc21 [SKF-97510]	MRCKB	%	0
Cc1cccc(-c2nc(C)cc(Nc3ccncc3)n2)n1 [GSK257997]	MRCKB	%	81
COc1ccc(C2=C(Nc3cccc(C(=O)O)c3)C(=O)NC2=O)cc1 [SB-390765]	MRCKB	%	8
Cc1ccc(-c2cc(-c3c[nH]nc3-c3ccccn3)ccn2)cc1 [GW684088]	MRCKB	%	0
NC(=O)c1nnc2ccccc2c1N	MRCKB	%	0
COc1ccc2nc(-c3cccc(C)n3)nc(Nc3ccncc3)c2c1 [GSK204919]	MRCKB	%	94.1
Cl.O=C(Nc1cccc(-c2nn3ncccc3c2-c2ccnc(Nc3cccnc3)n2)c1)c1c(F)cccc1F [GSK312879]	MRCKB	%	8
Fc1cccc(COc2nnc(-c3ccc4c(c3)CCO4)o2)c1	MRCKB	%	1
Cn1ccc2ncnc(Oc3ccc(Nc4nc5ccccc5[nH]4)cc3)c21	MRCKB	%	0
Cc1c(Cn2ccn3c(=O)cc(N4CCOCC4)nc23)cccc1C(F)(F)F [GSK2289044]	MRCKB	%	0

====

# Test system: PIP5K1C
# condition.context: concentration: 1 μM, replicates: in singlicate; n = 1
Label Fulfilled for high-side %Inh (at or above 20%) and Not fulfilled for low-side %Inh (below it).

molecule	discrete.label
CCn1c(-c2cccnc2O)nc2cnccc21	Not fulfilled
Fc1cccc(COc2nnc(-c3ccc4c(c3)CCO4)o2)c1	Not fulfilled
COc1ccc(CNC(=O)NC2CCN(c3ccnc(Nc4cc(OC)c(OC)c(OC)c4)n3)C2)cc1 (stereo not drawn)	Fulfilled
COC(=O)c1c(-c2ccccc2)c2cc(OC)ccc2c(=O)n1Cc1ccccc1	Not fulfilled
Cc1cccc(-c2nc(Nc3ccncc3)c3ccccc3n2)n1	Fulfilled
O=S(=O)(c1ccc(-c2ccnc3[nH]ccc23)cc1)N1CCCC1	Not fulfilled
O=c1cc(N2CCOCC2)nc2n(Cc3cccc(Cl)c3Cl)ccn12	Not fulfilled
Cc1ccc(NC(=O)Nc2cccc(Cl)c2)cc1-c1ccc(C(=O)Nc2ccncc2)cc1	Fulfilled
Cc1c(O)cccc1Nc1ccnc2ccc(C(F)(F)F)cc12.Cl	Not fulfilled

====

# Tested on: CDKL1
# condition.context: concentration: 1 μM, replicates: in singlicate; n = 1
Recorded %Inh by entry

compound	target	output.unit	%Inh
COc1cc2nccc(Nc3ccc(NC(=O)c4ccc(C)cc4)c(O)c3)c2cc1OC.Cl	CDKL1	%	4
COc1cc(Nc2nccc(N3CCC(NC(=O)Nc4cc(C)ccc4C)C3)n2)cc(OC)c1OC (stereo not drawn)	CDKL1	%	0
CS(=O)(=O)c1ccc(-c2c(-c3ncn[nH]3)sc(N3CCOCC3)c2C#N)cc1	CDKL1	%	22
O=C(Nc1n[nH]c2nc(-c3nccs3)c(Br)cc12)C1CC1	CDKL1	%	24
COc1ccc(C2=C(Nc3cccc(C(=O)O)c3)C(=O)NC2=O)cc1	CDKL1	%	0
C[C@@H]1CCCCN1c1cc(-c2ccc3c(N)n[nH]c3c2)nc(N)n1	CDKL1	%	6
Cc1cc(N2Cc3ccccc3C2)nc(Nc2ccc(S(=O)(=O)N3CCOCC3)cc2)n1.Cl	CDKL1	%	0
COc1ccc(Nc2nccc(NCCNC(=O)Nc3ccccc3F)n2)cc1	CDKL1	%	4
CC(=O)Nc1nc2cnc(Nc3cc(NC(=O)c4cccc(CCC#N)c4)ccc3C)nc2s1	CDKL1	%	0

====

# Tested on: TEC
# condition.context: concentration: 1 μM, replicates: in singlicate; n = 1
Short version: %Inh at least 5% is yes (1), less is no (0).

compound	discrete.label
C[C@@H]1CCCCN1c1cc(-c2ccc3c(N)n[nH]c3c2)nc(N)n1	no (0)
CCn1c(-c2ccccn2)nc2cnccc21	no (0)
Cl.c1ccc(-c2n[nH]cc2-c2ccnc(-c3ccc(CN4CCOCC4)cc3)c2)nc1	yes (1)
CC(C)(C)c1ccc(C(=O)Nc2cn3cc(-c4cccnc4)ccc3n2)cc1	yes (1)
Cc1c(O)cccc1Nc1ccnc2ccc(C(F)(F)F)cc12.Cl	no (0)
Cc1cc(N2Cc3ccccc3C2)nc(Nc2ccc(S(=O)(=O)N3CCOCC3)cc2)n1.Cl	no (0)
Nc1nc(-c2nccs2)c(-c2ccnc3ccccc23)s1	yes (1)
Cn1ccc2ncnc(Oc3cccc(C(=O)Nc4ccccc4)c3)c21	yes (1)
Cc1cccc(-c2nc(-c3ccc(S(C)(=O)=O)cc3)sc2-c2ccnc(NCCc3ccccc3)c2)c1	no (0)
COc1ccccc1CNC(=O)c1cc(C(=O)c2ccccc2C)c[nH]1	no (0)
Cc1cc(-c2ccc3c(c2)CC[C@@H](N[C@@H](C)c2ccccc2)C3)cnc1N.Cl	no (0)
Cc1ccc(NC(=O)Nc2cc(C(C)(C)C)nn2-c2ccccc2)cc1	yes (1)
COc1cccc(NC(=O)NC2CCN(c3ccnc(Nc4ccc(F)cc4)n3)C2)c1 (stereo not shown)	no (0)
CCCc1ccc(S(=O)(=O)NC2CCN(c3ccnc(Nc4ccc(F)cc4)n3)C2)cc1 (stereo not shown)	no (0)
Cc1cccc(-c2cc(Nc3ccncc3)c3ccccc3n2)n1	no (0)
COc1cccc(-c2cc(-c3c[nH]nc3-c3ccccn3)ccn2)c1	no (0)
CCn1c(-c2cccnc2O)nc2cnccc21	no (0)
COc1ccc(C2=C(Nc3cccc(C(=O)O)c3)C(=O)NC2=O)cc1	yes (1)
